target entity: NT-3 growth factor receptor (Homo sapiens);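 further: mean TRKC inhibition from the GSK PKIS kinase inhibitor set, with assays run by Nanosyn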
details: at 1 µM
Listed next: entries and their corresponding inhibition.
measured metric: inhibition (%)

- compound string: "COc1ccc2c(-c3ccnc(Nc4cccc(OC(F)(F)F)c4)n3)cnn2n1"
  target entity: "NT-3 growth factor receptor (Homo sapiens)"
  measured result: 12.3
- compound string: "CCN(CC)S(=O)(=O)c1ccc(OC)c(Nc2ncc(-c3ccccc3)o2)c1"
  target entity: "NT-3 growth factor receptor (Homo sapiens)"
  measured result: 35.2
- compound string: "CCNC(=O)O[C@H]1CN[C@H](C#Cc2cc3ncnc(Nc4ccc(OCc5cccc(F)c5)c(Cl)c4)c3s2)C1"
  target entity: "NT-3 growth factor receptor (Homo sapiens)"
  measured result: 1.74
- compound string: "COc1ccc(-c2nn3ncccc3c2-c2ccnc(Nc3ccc4c(c3)OCCO4)n2)cc1"
  target entity: "NT-3 growth factor receptor (Homo sapiens)"
  measured result: 6.72
- compound string: "CC(=O)Nc1cccc(C#Cc2cncnc2Nc2ccc(OCc3cccc(F)c3)c(Cl)c2)c1"
  target entity: "NT-3 growth factor receptor (Homo sapiens)"
  measured result: 1.69
- compound string: "c1cc(-c2cnn3nc(N4CCOCC4)ccc23)nc(NC2CC2)n1"
  target entity: "NT-3 growth factor receptor (Homo sapiens)"
  measured result: 2.55
- compound string: "Cc1ccc(O)cc1Nc1ccnc2cc(-c3ccccn3)ccc12"
  target entity: "NT-3 growth factor receptor (Homo sapiens)"
  measured result: 4.64
- compound string: "CCCN(CCS(C)(=O)=O)Cc1ccc(-c2ccc3ncnc(Nc4ccc(OCc5cccc(F)c5)c(Cl)c4)c3c2)o1"
  target entity: "NT-3 growth factor receptor (Homo sapiens)"
  measured result: 2.15
- compound string: "CN1CCC(n2cnc(-c3ccc(F)cc3)c2-c2ccnc(N)n2)CC1"
  target entity: "NT-3 growth factor receptor (Homo sapiens)"
  measured result: 8.74
- compound string: "CCn1c(-c2nonc2N)nc2cnc(Oc3cccc(NC(=O)c4ccc(N(C)C)cc4)c3)cc21"
  target entity: "NT-3 growth factor receptor (Homo sapiens)"
  measured result: 1.6
- compound string: "Nc1ncc(-c2cccc(S(N)(=O)=O)c2)c2scc(-c3ccc(F)c(Cl)c3)c12"
  target entity: "NT-3 growth factor receptor (Homo sapiens)"
  measured result: 1.1
- compound string: "CNC(=O)c1cccc(C#Cc2cncnc2Nc2ccc(OCc3cccc(F)c3)c(Cl)c2)c1"
  target entity: "NT-3 growth factor receptor (Homo sapiens)"
  measured result: 2.86
- compound string: "NC(=O)c1sc(-n2cnc3ccc(C(F)(F)F)cc32)cc1OCc1ccccc1Br"
  target entity: "NT-3 growth factor receptor (Homo sapiens)"
  measured result: 4.67
- compound string: "CCOc1ccc2c(-c3ccnc(Nc4cccc(C(F)(F)F)c4)n3)cnn2n1"
  target entity: "NT-3 growth factor receptor (Homo sapiens)"
  measured result: 3.18
- compound string: "CCn1c(-c2nonc2N)nc2ccccc21"
  target entity: "NT-3 growth factor receptor (Homo sapiens)"
  measured result: 0.89
- compound string: "Nc1nc(-c2cccc(Cl)c2)c(-c2ccc3ncccc3n2)s1"
  target entity: "NT-3 growth factor receptor (Homo sapiens)"
  measured result: 5.02
- compound string: "CC(C)COC(=O)c1ccc2c(c1)/C(=C/Nc1ccc(S(N)(=O)=O)cc1)C(=O)N2"
  target entity: "NT-3 growth factor receptor (Homo sapiens)"
  measured result: 48.5
- compound string: "CS(=O)(=O)CCNCc1ccc(-c2ccc3ncnc(Nc4ccc(OCc5ccccc5)c(C(F)(F)F)c4)c3c2)o1"
  target entity: "NT-3 growth factor receptor (Homo sapiens)"
  measured result: 1.42
- compound string: "COc1cc(Nc2nccc(Nc3ccc4c(C)n[nH]c4c3)n2)cc(OC)c1OC"
  target entity: "NT-3 growth factor receptor (Homo sapiens)"
  measured result: 17.3
